# MEASUREMENT TARGET: VEGF165 (human, UniProt P15692-4 27-191)
# Sequence (P15692 other isoform, or with tags, fused parts or gaps limits assumed): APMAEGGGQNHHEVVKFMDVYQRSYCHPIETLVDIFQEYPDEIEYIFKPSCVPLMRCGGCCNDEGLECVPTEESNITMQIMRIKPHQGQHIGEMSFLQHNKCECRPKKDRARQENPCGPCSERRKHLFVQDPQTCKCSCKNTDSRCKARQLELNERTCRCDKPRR
# ASSAY OVERVIEW: cell-based or functional assay

BINDER | IC50, HUVEC Survival
mvsFlt 650 kDa HCR (multivalent sFlt-hyaluronic acid conjugate, high conjugation ratio) (other, UniProt P17948 27-328, looked up, thiolated with 2-iminothiolane and linked through EMCH maleimide to 650 kDa hyaluronic acid, domain: first 3 Ig-like extracellular domains; Protein-polymer conjugate; 30:1 sFlt:HyA feed ratio; final sFlt:HyA 17.1 by SEC-MALS; not shown: tag implied by Ni-NTA purification, not described) SKLKDPELSLKGTQHIMQAGQTLHLQCRGEAAHKWSLPEMVSKESERLSITKSACGRNGKQFCSTLTLNTAQANHTGFYSCKYLAVPTSKKKETESAIYIFISDTGRPFVEMYSEIPEIIHMTEGRELVIPCRVTSPNITVTLKKFPLDTLIPDGKRIIWDSRKGFIISNATYKEIGLLTCEATVNGHLYKTNYLTHRQTNTIIDVQISTPRPVKLLRGHTLVLNCTATTPLNTRVQMTWSYPDEKNKRASVRRRIDQSNSHANIFYSVLTIDKMQNKDKGLYTCRVRSGPSFKSVNTSVHI | 0.0432 µg/mL
